# study system: glucoamylase from Aspergillus Niger (Aspergillus niger, UniProt P69328)
# Sequence (P69328 25-640): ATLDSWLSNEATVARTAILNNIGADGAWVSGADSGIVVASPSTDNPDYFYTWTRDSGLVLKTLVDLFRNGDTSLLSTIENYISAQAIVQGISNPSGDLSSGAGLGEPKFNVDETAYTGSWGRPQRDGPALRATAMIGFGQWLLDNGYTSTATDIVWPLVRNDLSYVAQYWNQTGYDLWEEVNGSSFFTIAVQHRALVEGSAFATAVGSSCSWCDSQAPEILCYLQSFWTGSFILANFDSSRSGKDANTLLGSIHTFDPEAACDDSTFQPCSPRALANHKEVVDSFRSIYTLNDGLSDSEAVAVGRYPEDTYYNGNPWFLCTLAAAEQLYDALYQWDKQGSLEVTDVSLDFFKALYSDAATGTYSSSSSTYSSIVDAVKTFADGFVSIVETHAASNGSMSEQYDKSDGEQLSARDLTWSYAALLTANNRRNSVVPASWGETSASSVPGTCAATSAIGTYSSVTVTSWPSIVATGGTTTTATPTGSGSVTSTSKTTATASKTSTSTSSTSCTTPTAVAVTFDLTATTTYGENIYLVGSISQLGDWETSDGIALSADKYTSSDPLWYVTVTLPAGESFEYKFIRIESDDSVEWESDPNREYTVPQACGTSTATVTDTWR
# experiment: hydrolysis of cooked dent corn starch with other additives
# Type: biochemical
# test parameters: Additive (10 mM); cooked dent corn starch 0.5%; pH 5.2; 37° C., 10 min
assay endpoint: Relative Activity (%)
Supply the numeric figure in %, leaving out any unit text.

Inquiry: Could you share which Relative Activity value was measured for [Zn+2] ?
Reply text: 57.3

Inquiry: Bench note: what Relative Activity did [Mg+2] show?
Reply text: 96.0

Inquiry: Item under review: [Sr+2] . Reported Relative Activity?
Reply text: 93.8

---

# study system: glucoamylase from Aspergillus Niger (Aspergillus niger, UniProt P69328)
# experiment: hydrolysis of cooked dent corn starch with other additives
# Assay type: biochemical
# test parameters: Additive (10 mM); cooked dent corn starch 0.5%; pH 5.2; 37° C., 10 min
# Procedure: The glucoamylase from Aspergillus Niger was added to a sodium acetate buffer solution, pH 5.2, comprising no metal or 10 mM Fe^++, Mg^++, Li^+, Zn^++, Cu^++, Ca^++, di-sodium EDTA, NH4^+, Sr^++, Na^+, K^+, Al^+++, or Ba^++ and 0.5% by weight cooked dent corn starch. The separate reaction mixtures were incubated at 37° C. for 10 minutes. […] The absorbance of the control and test samples was measured at 562 nm to monitor the amount of reducing sugar in each sample.
assay endpoint: Relative Activity
Dear colleague, please send the value followed by its unit.

Inquiry: Item under review: [Na+] . Reported Relative Activity?
Reply text: 97.3%

Inquiry: Query (molecule): N ; field requested: Relative Activity
Reply text: 98.3%

Inquiry: What value of Relative Activity has been recorded for this entry: [Cu+2]
Reply text: 33.9%

Inquiry: Reported Relative Activity, molecule [Al+3] : ____
Reply text: 96.2%

Inquiry: GET /values?readout=Relative Activity&item= [Fe+2]
Reply text: 98.3%

Inquiry: Which value of Relative Activity has been reported for O=C(O)CN(CCN(CC(=O)O)CC(=O)O)CC(=O)O.[Na].[Na] [Disodium EDTA] in the records?
Reply text: 57.6%

Inquiry: Please look up its Relative Activity: [Ba+2]
Reply text: 99.3%

Inquiry: Look up Relative Activity: [Li+]
Reply text: 118.1%

Inquiry: Reported Relative Activity, molecule [K+] : ____
Reply text: 113.3%

---

# study system: β-amylase from barley (Hordeum vulgare, UniProt P16098)
# Sequence (P16098 whole entry): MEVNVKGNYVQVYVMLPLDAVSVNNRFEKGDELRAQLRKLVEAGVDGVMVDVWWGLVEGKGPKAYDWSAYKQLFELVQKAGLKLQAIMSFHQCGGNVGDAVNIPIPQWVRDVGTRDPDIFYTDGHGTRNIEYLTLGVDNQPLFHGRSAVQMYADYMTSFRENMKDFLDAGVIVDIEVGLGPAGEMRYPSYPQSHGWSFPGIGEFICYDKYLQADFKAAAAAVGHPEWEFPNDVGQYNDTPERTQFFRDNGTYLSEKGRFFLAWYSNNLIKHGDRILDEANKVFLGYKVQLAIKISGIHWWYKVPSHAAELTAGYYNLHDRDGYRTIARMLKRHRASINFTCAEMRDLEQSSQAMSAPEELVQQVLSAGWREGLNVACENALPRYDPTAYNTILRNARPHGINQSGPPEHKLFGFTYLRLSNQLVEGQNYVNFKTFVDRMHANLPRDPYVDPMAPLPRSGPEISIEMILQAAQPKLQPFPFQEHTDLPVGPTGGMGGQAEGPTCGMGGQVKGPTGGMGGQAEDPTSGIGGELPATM
# experiment: hydrolysis of cooked dent corn starch with other additives
# Type: biochemical
# test parameters: Additive (10 mM); cooked dent corn starch 0.5%; pH 5.2; 37° C., 10 min
assay endpoint: Relative Activity (%)
The reply should contain only the number, in %.

Inquiry: Request the reported Relative Activity associated with [Mg+2] [Mg^++, magnesium ion]
Reply text: 110.8

Inquiry: Item [Li+] [Li^+, lithium ion] has what recorded Relative Activity?
Reply text: 101.6

Inquiry: Need Relative Activity of [Cu+2] [Cu^++] , thanks.
Reply text: 6.7

Inquiry: Bench note: what Relative Activity did [Ba+2] [Ba^++, barium ion] show?
Reply text: 114.6

Inquiry: Value lookup for Relative Activity; key = [Zn+2] [Zn^++]
Reply text: 70.6

Inquiry: Would you mind telling me what Relative Activity value was observed for [Na+] [Na^+] ?
Reply text: 95.1

Inquiry: Fill in: Relative Activity of N [NH4^+] is ___
Reply text: 95.1

Inquiry: Using the record for [Al+3] [Al^+++] , report its Relative Activity.
Reply text: 77.5

Inquiry: Could you share which Relative Activity value was measured for [K+] [K^+, potassium ion] ?
Reply text: 101.1

Inquiry: Quick check: Relative Activity of O=C(O)CN(CCN(CC(=O)O)CC(=O)O)CC(=O)O.[Na].[Na] [Disodium EDTA] ?
Reply text: 100.4

Inquiry: What does the record list as Relative Activity for [Sr+2] [Sr^++, strontium ion] ?
Reply text: 114.1

Inquiry: Quick check: Relative Activity of [Fe+2] [Fe^++] ?
Reply text: 88.7

---

Answer each item with its documented Relative Activity.
# Tested on: enzyme mixture of purified glucoamylase from mushroom and purified α-amylase from barley
# experiment: hydrolysis of raw corn starch by enzyme mixture, reducing sugar by DNSA
# Assay type: biochemical
# test parameters: 10 mM additive; raw corn starch; pH 5.3; 37° C., 20 min
# Procedure: Enzyme mixture was also pre-incubated with 10 mM Fe^++, Cu^++, Ca^++, Mg^++, or disodium ethylenediamine-tetraacetic acid (EDTA). Thereafter, 40 μl of each pre-incubation solution was added to 15 mg raw corn starch, and the reaction mixture incubated at 37° C. for 20 minutes. The control reaction mixture contained substrate, enzyme, and buffer but no additional metal ions. […] The absorbance of the control and test samples was measured at 562 nm to monitor the amount of reducing sugar in each sample.

Inquiry: enzyme mixture of purified glucoamylase from mushroom and purified α-amylase from barley / Relative Activity / [Mg+2] : value?
Reply text: 92.4%

Inquiry: Given the entry [Ca+2] , what Relative Activity was observed with enzyme mixture of purified glucoamylase from mushroom and purified α-amylase from barley?
Reply text: 97.3%

Inquiry: State its Relative Activity on enzyme mixture of purified glucoamylase from mushroom and purified α-amylase from barley: [Cu+2]
Reply text: 47.5%

Inquiry: Query the reported Relative Activity for enzyme mixture of purified glucoamylase from mushroom and purified α-amylase from barley; item: [Fe+2]
Reply text: 74.0%

Inquiry: Give enzyme mixture of purified glucoamylase from mushroom and purified α-amylase from barley Relative Activity for O=C(O)CN(CCN(CC(=O)O)CC(=O)O)CC(=O)O.[Na].[Na] [Disodium EDTA]
Reply text: 88.8%

---

# study system: UniProt P06278
# Sequence (P06278 30-512): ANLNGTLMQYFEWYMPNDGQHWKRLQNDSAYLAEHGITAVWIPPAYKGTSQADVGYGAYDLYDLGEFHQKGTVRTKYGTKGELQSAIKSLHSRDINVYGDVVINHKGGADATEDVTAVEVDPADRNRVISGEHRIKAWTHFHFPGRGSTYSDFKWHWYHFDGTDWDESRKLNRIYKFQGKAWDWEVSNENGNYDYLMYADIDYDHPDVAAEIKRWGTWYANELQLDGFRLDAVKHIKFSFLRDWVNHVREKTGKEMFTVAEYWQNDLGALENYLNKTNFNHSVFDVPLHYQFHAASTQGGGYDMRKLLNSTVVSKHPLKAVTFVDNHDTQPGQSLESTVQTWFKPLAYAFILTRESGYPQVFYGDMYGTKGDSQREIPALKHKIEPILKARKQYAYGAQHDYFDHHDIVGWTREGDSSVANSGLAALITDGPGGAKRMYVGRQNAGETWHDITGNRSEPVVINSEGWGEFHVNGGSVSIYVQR
# experiment: hydrolysis of cooked dent corn starch with other additives
# Assay type: biochemical
# test parameters: Additive (10 mM); cooked dent corn starch 0.5%; pH 5.2; 37° C., 10 min
Decision: Relative Activity >= 90% yields t, all other cases yield f.

Inquiry: Hello, I need to know if [Cu+2] [Cu^++] has measured Relative Activity not below 90%. Thanks!
Reply text: f

Inquiry: Exam item: decide whether the reported Relative Activity for [Fe+2] [Fe^++] is at least 90%.
Reply text: t

Inquiry: Test whether the compound [Al+3] [Al^+++] records Relative Activity of 90% or higher.
Reply text: t

Inquiry: Determine whether this compound has Relative Activity no lower than 90%: [Sr+2] [Sr^++, strontium ion]
Reply text: f

Inquiry: Hi team, for [Mg+2] [Mg^++, magnesium ion] , is the recorded Relative Activity at or above 90%?
Reply text: f

Inquiry: Identify whether the reported Relative Activity of the following compound is 90% or greater: [Zn+2] [Zn^++]
Reply text: t

Inquiry: Please tell me: is the compound O=C(O)CN(CCN(CC(=O)O)CC(=O)O)CC(=O)O.[Na].[Na] [Disodium EDTA] at or over 90% in terms of Relative Activity?
Reply text: t

Inquiry: Is reported Relative Activity greater than or equal to 90% here: N [NH4^+]
Reply text: f

Inquiry: Identify whether the reported Relative Activity of the following compound is 90% or greater: [Ba+2] [Ba^++, barium ion]
Reply text: t

Inquiry: Form field: Relative Activity at least 90%? Entry: [Na+] [Na^+]
Reply text: f

Inquiry: Has [K+] [K^+, potassium ion] a recorded Relative Activity greater than or equal to 90%?
Reply text: f
